Where do these numbers come from? They come from BindingDB's records for doi:10.3109/14756366.2011.639016.

target: Carbonic anhydrase 1 (Homo sapiens)
Sequence (P00915 whole entry): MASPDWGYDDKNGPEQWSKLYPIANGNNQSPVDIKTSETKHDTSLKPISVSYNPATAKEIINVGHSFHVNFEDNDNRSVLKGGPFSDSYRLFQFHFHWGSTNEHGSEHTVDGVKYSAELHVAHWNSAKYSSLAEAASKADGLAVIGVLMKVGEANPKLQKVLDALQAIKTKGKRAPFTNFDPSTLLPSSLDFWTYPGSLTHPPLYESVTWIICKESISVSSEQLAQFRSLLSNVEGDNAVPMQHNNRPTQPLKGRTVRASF
readout kind: IC50 (µM)
Field format: number, assumed µM, no unit text.

Exercise: I am curious: what IC50 value has been reported for Cc1ccc(-c2c(C#N)c(N)nc3c2CCCC3)o1 [CA inhibitor, 5e] ?
Key: 48

Exercise: # lookup: IC50 of Cc1ccc(-c2c(C#N)c(N)nc3c2CCCCC3)s1 [CA inhibitor, 5c]
Key: 40

Exercise: Data request, read-out IC50, for Cc1ccc(-c2c(C#N)c(N)nc3c2CCSC3)o1 [CA inhibitor, 5l]
Key: 53

Exercise: Which value of IC50 has been reported for Cc1ccc(-c2c(C#N)c(N)nc3c2CCCC3)s1 in the records?
Key: 34
